MEASUREMENT DESCRIPTION: chemical genetic growth profiling, strain panel (AID 1159580);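 note: tested at 20 µM; growth read once vehicle control cultures reached saturation at 30 °C; 1 = growth at the plate median or of vehicle wells; lower values mean less growth of the strain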
DETAILS: S. cerevisiae deletion strains, growth OD, locus YGL078C, strain dbp3, stronger effect = lower value
In all, about 5,500 compounds went through this assay and about 2,000 (36%) were called active. Roughly 18% stayed inconclusive and do not appear here. This is one part of the list.
QUANTITY KIND: normalized growth
Would you mind answering with just the numeric figure?

>  <MOLECULE>
COC(=O)/C=C/C(C)=C/C=C/C(C)=C/C=C/C=C(C)/C=C/C=C(C)/C=C/C(=O)O

>  <normalized growth>
0.993

$$$$
>  <MOLECULE>
COc1cc(OC)c2c(c1)O[C@H](c1cc(OC)c(OC)c(OC)c1)[C@H](OC(=O)c1cc(OC)c(OC)c(OC)c1)C2

>  <normalized growth>
1

$$$$
>  <MOLECULE>
CC[C@@]1(O)C[C@H](O[C@H]2C[C@H](N(C)C)[C@H](O)[C@H](C)O2)c2c(cc3c(c2O)C(=O)c2c(O)cccc2C3=O)[C@H]1C(=O)OC

>  <normalized growth>
0.928

$$$$
>  <MOLECULE>
COc1cc2c(cc1OC)C(=O)c1ccc(OC)c(OC)c1OCC(=O)C2

>  <normalized growth>
0.963

$$$$

GET /value?item= "COc1ccc2c(c1)OC/C(=C\c1ccc(OC)c(O)c1)C2=O" &field=normalized growth returns 0.878

Form: molecule = "CC[C@@]1(O)C[C@H](O[C@H]2C[C@H](N(C)C)[C@H](O)[C@H](C)O2)c2c(cc3c(c2O)C(=O)c2c(O)ccc(O)c2C3=O)[C@H]1C(=O)OC" ; normalized growth = 0.973

Entry "COc1ccc([C@H]2Oc3c(I)c(OC)cc(OC)c3C[C@@H]2O)cc1OC" , normalized growth reported as 0.999

# normalized growth (molecule: "CC(=O)Oc1cc(OC(C)=O)c2c(c1)O[C@H](c1ccc(OC(C)=O)c(OC(C)=O)c1)[C@H](OC(C)=O)C2" ) is 1.02

For this molecule ( "O=C(O[C@@H]1Cc2c(O)cc(O)cc2O[C@@H]1c1ccc(O)c(O)c1)c1cc(O)c(O)c(O)c1" ), measured normalized growth is 1.03

Measured normalized growth, CCC(C)C(=O)O[C@@H]1C[C@@]2(C)[C@H](c3ccoc3)OC(=O)CC23OC2(C)OC34[C@H](OC(=O)C(C)C)[C@@]3(O)[C@@H](OC(=O)C5(C)OC5C)[C@@]5(C)C[C@]3(O)[C@@](C)([C@H]5CC(=O)OC)C14O2 (some centres undefined) : 1.03

The reported normalized growth of the molecule CCC(C)C(=O)O[C@@H]1C[C@@]2(C)[C@H](c3ccoc3)OC(=O)CC23OC2(C)O[C@]14[C@]1(C)[C@@H](CC(=O)OC)C5(C)CC1(O)[C@](O)(C5OC(=O)C1(C)OC1C)[C@@H](OC(C)=O)[C@]34O2 (some centres undefined) was 1.05

Measured normalized growth, "CC(=O)Oc1cc(OC(C)=O)c2c(c1)O[C@H](c1ccc(OC(C)=O)c(OC(C)=O)c1)[C@@H](OC(C)=O)C2" : 0.979

Kindly note the recorded normalized growth for "COc1ccc2c(c1)OC/C(=C/c1ccc(OC)c(OC)c1)C2=O" , which is 0.976

// sample "O=C(Oc1cc(OC(=O)c2ccccc2)c2c(c1)O[C@H](c1ccc(OC(=O)c3ccccc3)c(OC(=O)c3ccccc3)c1)[C@@H](OC(=O)c1ccccc1)C2)c1ccccc1" , its normalized growth was 1.04
